System: U251
Assay: cells
Conditions: Homo sapiens, U-251, 48 h, read-out: Median Growth Inhibitory Concentration (GI50)
Reported GI50 by item:
Field format: number, assumed µM, no unit text.

# example entries with known answers
>>> quantitative_readout("CC1(/C=C/c2ccccc2O)C=Cc2ccccc2O1 (stereo not drawn)")
16.1
>>> quantitative_readout("OC(CCc1ccc(F)cc1F)CCc1ccc(F)cc1F")
17.4
>>> quantitative_readout("O=C(C=Cc1ccc(F)cc1F)C=Cc1ccc(F)cc1F")
2.1
>>> quantitative_readout("CC(=O)O.O=C1C(=Cc2ccccc2F)CNCC1=Cc1ccccc1F")
0.2
>>> quantitative_readout("COc1cc(/C=C/C(=O)CC(=O)/C=C/c2ccc(O)c(OC)c2)ccc1O")
5

Note: attention shifts to another entry.
(Q) Please report the recorded GI50 for `O=C1C(=Cc2ccccc2O)CCCC1=Cc1ccccc1O` .
(A) 2
